Please provide measured absorption maximum for the entries that follow.
assay: solvent given as SMILES; conditions: in CCN(CC)CC
Quick reminder: number only, in nm, skip the unit.

I am curious: what absorption maximum value has been reported for CC1(C)c2ccccc2N(c2ccc(-c3n[n+]4c(o3)-c3ccccc3O[B-]4(F)F)cc2)c2ccccc21 ? 362

I am curious: what absorption maximum value has been reported for c1ccc(N(c2ccccc2)c2ccc(-c3cccc4nc5ccccc5cc34)cc2)cc1 ? 389

I am curious: what absorption maximum value has been reported for CCCCCCCCC1(CCCCCCCC)c2ccccc2-c2ccc(N(c3ccc(-n4c5ccccc5c5ccccc54)cc3)c3ccc4c(c3)C(CCCCCCCC)(CCCCCCCC)c3ccccc3-4)cc21 ? 347

I am curious: what absorption maximum value has been reported for CCC(=O)c1ccc2cc(N(C)C)ccc2c1 ? 343

====

assay: solvent given as SMILES; settings: in ClC(Cl)Cl
Note to self: values exactly at 500 nm are 1.0. So absorption maximum at or above 500 nm is 1.0, below is 0.0.

Check if absorption maximum >= 500 nm (inclusive). Item: CCCCCCCCCc1csc2cc(-c3cc(-c4cc5scc(CCCCCCCCC)c5s4)c4ccc5c(-c6cc7scc(CCCCCCCCC)c7s6)cc(-c6cc7scc(CCCCCCCCC)c7s6)c6ccc3c4c65)sc12 0.0

Check if absorption maximum >= 500 nm (inclusive). Item: c1ccc2cc(-n3cnc4ccccc43)ccc2c1 0.0

Check if absorption maximum >= 500 nm (inclusive). Item: COc1ccc(-n2nc(C#N)c(N3CCCC3)n2)cc1 0.0

Check if absorption maximum >= 500 nm (inclusive). Item: CC(C)c1cccc(C(C)C)c1-n1c(=O)c2ccc3c4ccc5c(=O)n(-c6c(C(C)C)cccc6C(C)C)c(=O)c6cc7c(-c8ccccn8)nc8cc(c1=O)c2c3c8c7c4c56 0.0

Check if absorption maximum >= 500 nm (inclusive). Item: F[B-]1(F)n2c(ccc2-c2ccccc2)C(c2ccc(I)cc2)=C2C=CC(c3ccccc3)=[N+]21 1.0

Check if absorption maximum >= 500 nm (inclusive). Item: CC(C)(C)c1ccc(-c2cc3c4c(c2)CCc2cc(-c5ccc(C(C)(C)C)cc5)cc(c2-4)CC3)cc1 0.0

Check if absorption maximum >= 500 nm (inclusive). Item: CCCCC(CC)CN1C(=O)c2cccc3c(C#Cc4ccc(N(c5ccc(C#Cc6ccc7c8c(cccc68)C(=O)N(CC(CC)CCCC)C7=O)cc5)c5ccc(C#Cc6ccc7c8c(cccc68)C(=O)N(CC(CC)CCCC)C7=O)cc5)cc4)ccc(c23)C1=O (configuration not stated) 0.0

Check if absorption maximum >= 500 nm (inclusive). Item: c1ccc(-c2nc(-c3ccccc3)c(N(c3ccccc3)c3ccccc3)[se]2)cc1 0.0

Check if absorption maximum >= 500 nm (inclusive). Item: CC(C)C1=c2c(c3[nH]cc(C(C)C)c3c3ccccc23)=[N+]2C1=Cc1c(C(C)C)c3c4ccccc4c4c(C(C)C)c[nH]c4c3n1[B-]2(F)F 1.0

Check if absorption maximum >= 500 nm (inclusive). Item: O=C1NC(=O)c2ccc(N3CCOCC3)c3cccc1c23 0.0

Check if absorption maximum >= 500 nm (inclusive). Item: CCN(CC)c1ccc2cc(/C=C/C3=C4CC/C(=C\c5cc6ccc(N(CC)CC)cc6oc5=O)C4=[O+][B-](F)(F)O3)c(=O)oc2c1 1.0

Check if absorption maximum >= 500 nm (inclusive). Item: CCCCCCCN1C(=CC2=C([O-])C(=CC3=[N+](CCCCCCC)c4ccccc4C3(C)C)C2=C(C#N)C#N)C(C)(C)c2ccccc21 1.0

Check if absorption maximum >= 500 nm (inclusive). Item: CCCCCCCCN1C(=O)c2ccc3c4c(-c5ccc6c(c5)c5ccccc5n6-c5ccccc5)cc5c6c(ccc(c7c(-c8ccc9c(c8)c8ccccc8n9-c8ccccc8)cc(c2c37)C1=O)c64)C(=O)N(CCCCCCCC)C5=O 1.0

Check if absorption maximum >= 500 nm (inclusive). Item: O=Cc1c(O)c(-c2nc3ccccc3s2)cc2ccccc12 0.0

Check if absorption maximum >= 500 nm (inclusive). Item: Cc1nc(-c2ccc(-n3c4ccccc4c4ccccc43)cc2)cc(-c2ccc(-n3c4ccccc4c4ccccc43)cc2)n1 0.0

Check if absorption maximum >= 500 nm (inclusive). Item: COc1ccc(-c2cc3c(s2)=CC2=C(C(F)(F)F)c4cc5sc(-c6ccc(OC)cc6)cc5n4[B-](F)(F)[N+]=32)cc1 1.0

Check if absorption maximum >= 500 nm (inclusive). Item: F[B-]1(F)n2c(-c3ccccc3)cc(-c3ccccc3)c2N=C2C(c3ccccc3)=CC(c3ccccc3)=[N+]21 1.0

Check if absorption maximum >= 500 nm (inclusive). Item: C=C[Si](c1c2ccccc2cc2ccccc12)(c1c2ccccc2cc2ccccc12)c1c2ccccc2cc2ccccc12 0.0

Check if absorption maximum >= 500 nm (inclusive). Item: C(#Cc1ccccc1)C(C#Cc1ccccc1)=c1c2ccccc2c(=C(C#Cc2ccccc2)C#Cc2ccccc2)c2ccccc12 1.0

Check if absorption maximum >= 500 nm (inclusive). Item: c1ccc(N(c2ccccc2)c2ccc(-c3ccc(-c4ccc(-c5ccc(-c6ccc(N(c7ccccc7)c7ccccc7)cc6)s5)c5nsnc45)s3)cc2)cc1 1.0

Check if absorption maximum >= 500 nm (inclusive). Item: CCOC(=O)c1sc2nc(-c3ccccc3)c(C)c(C#N)c2c1N 0.0

Check if absorption maximum >= 500 nm (inclusive). Item: N#Cc1c(C#N)c2ccccc2c2ccccc12 0.0

Check if absorption maximum >= 500 nm (inclusive). Item: CCOC(=O)c1ccccc1-c1c2ccc(=[N+](CC)CC)cc-2oc2c1c(=O)oc1cc3c(cc12)CCCN3C 1.0

Check if absorption maximum >= 500 nm (inclusive). Item: N#CC(C#N)=C(/C=C/c1cn(-c2ccccc2)nc1-c1ccccc1)c1ccccc1 0.0

Check if absorption maximum >= 500 nm (inclusive). Item: C(=N\c1ccc(-c2cn3nc(-c4cccs4)sc3n2)cc1)/c1ccc2ccc3cccc4ccc1c2c34 0.0

Check if absorption maximum >= 500 nm (inclusive). Item: c1ccc2c(-n3cnc4ccccc43)cccc2c1 0.0

Check if absorption maximum >= 500 nm (inclusive). Item: COc1ccc(-c2cc3c4c(c2)CCc2cc(-c5ccc(OC)cc5)cc(c2-4)CC3)cc1 0.0

Check if absorption maximum >= 500 nm (inclusive). Item: Cc1cc(C)cc(NC(=O)c2sc(Br)nc2C)c1 0.0

Check if absorption maximum >= 500 nm (inclusive). Item: CCC(=O)c1ccc2cc(N(C)C)ccc2c1 0.0

Check if absorption maximum >= 500 nm (inclusive). Item: Cc1ccc(-n2c3ccccc3c3cc(C(=C(C#N)C#N)c4ccccc4)ccc32)cc1 0.0

====

test: solvent given as SMILES; settings: in CCCCCCC
value-kind: absorption maximum
Dear colleague, please send the value followed by its unit.

I am curious: what absorption maximum value has been reported for CCC(=O)c1ccc2cc(N(C)C)ccc2c1 ? 343 nm

I am curious: what absorption maximum value has been reported for CC1(C)CC(=O)C2=C(C1)Oc1ccc3ccccc3c1C2c1ccccn1 (stereo not drawn) ? 274 nm

I am curious: what absorption maximum value has been reported for c1cc2c3c(cccc3c1)-c1cc3c(ccc4ccccc43)cc1-2 ? 405 nm

====

experiment: solvent given as SMILES; conditions: in CS(C)=O
Please provide measured absorption maximum for the entries that follow.
Quick reminder: number only, in nm, skip the unit.

I am curious: what absorption maximum value has been reported for CCOC(=O)c1ccccc1-c1c2ccc(=O)cc-2oc2cc(OC(=O)[C@H](CO[Si](C)(C)C(C)(C)C)NC(=O)OC(C)(C)C)ccc12 ? 449

I am curious: what absorption maximum value has been reported for [C-]#[N+]c1ccc(-c2ccc(N)cc2)cc1 ? 318

I am curious: what absorption maximum value has been reported for CCOC(=O)CN1C(=O)C2=C(c3ccc(C#N)cc3)N(CC(=O)OCC)C(=O)C2=C1c1ccc(C#N)cc1 ? 480

I am curious: what absorption maximum value has been reported for CN1/C(=C/C=C(/C=C/c2sc3ccccc3[n+]2C)c2cccc(C(F)(F)F)c2)Sc2ccccc21 ? 653

I am curious: what absorption maximum value has been reported for Cc1cc(=O)c2ccc(N)cc2o1 ? 326

I am curious: what absorption maximum value has been reported for CCN(CC)c1ccc(/C=N/Nc2ccc(C#N)cc2)c(O)c1 ? 391

I am curious: what absorption maximum value has been reported for CCOC(=O)C1=C(N)n2c(=O)c3ccccc3c(=O)n2C1c1cccs1 (configuration not stated) ? 365

I am curious: what absorption maximum value has been reported for CCC1=C(C)C2=Cc3c4ccccc4c4n3[B-](c3cc[n+](C)cc3)(Oc3ccccc3-4)[N+]2=C1C (configuration not stated) ? 626

I am curious: what absorption maximum value has been reported for CCCCCCCCCCCCOc1cc2cc(N(C)C)ccc2cc1C#N ? 369

I am curious: what absorption maximum value has been reported for Cn1c2ccc(S(=O)(=O)Cl)cc2c(=O)c2cc(S(=O)(=O)Cl)ccc21 ? 406

I am curious: what absorption maximum value has been reported for CCN1c2ccccc2Sc2cc(/C=C(\C#N)c3ccccc3)ccc21 ? 418

I am curious: what absorption maximum value has been reported for CN(C)c1ccc2nc(-c3ccc(C(=O)OC[C@H](NC(=O)OC(C)(C)C)C(=O)OCc4ccccc4)cc3)sc2c1 ? 408

I am curious: what absorption maximum value has been reported for CSc1sc(C(N)=O)c2nnn(C)c(=O)c12 ? 398.5

I am curious: what absorption maximum value has been reported for N#CC(C#N)=C(/C=C/c1cn(-c2ccccc2)nc1-c1ccccc1)c1ccccc1 ? 409

I am curious: what absorption maximum value has been reported for CCC1(CC)c2cc(N(C)C)ccc2-c2ccc(C(F)(F)F)cc21 ? 350

I am curious: what absorption maximum value has been reported for CCOC(=O)c1sc(SC)c2c(=O)[nH]nnc12 ? 387.5

I am curious: what absorption maximum value has been reported for C#CCN1C(=O)/C(=C/c2cc(OC(C)C)ccc2OC(C)C)N=C1C ? 401

I am curious: what absorption maximum value has been reported for COc1ccc(-c2nc(-c3ccccc3O)c(-c3ccccc3O)n2-c2ccc(C)cc2)cc1 ? 308

I am curious: what absorption maximum value has been reported for CCOC(=O)C1=C(N)n2c(=O)c3ccccc3c(=O)n2C1c1ccccc1 (configuration not stated) ? 364

I am curious: what absorption maximum value has been reported for Cc1ccc(-c2c3nc(c(-c4ccc(C)cc4)c4ccc([nH]4)c(-c4ccc(C)cc4)c4nc(c(-c5ccc(C)cc5)c5ccc2[nH]5)C=C4N2CCOCC2)C=C3)cc1 ? 653

I am curious: what absorption maximum value has been reported for COc1ccc(-n2c3ccccc3c3cc(/C=C/C(=C(C#N)C#N)c4ccccc4)ccc32)cc1 ? 454

I am curious: what absorption maximum value has been reported for CN(C)c1ccc2c3c(ccc2c1)C(=O)CCC3 ? 363

I am curious: what absorption maximum value has been reported for O=c1oc2ccccc2cc1-c1nc2ccccc2o1 ? 354

I am curious: what absorption maximum value has been reported for COc1c(/C=N/Nc2ccc(C#N)cc2)ccc2ccccc12 ? 392

I am curious: what absorption maximum value has been reported for CSc1ccc(-c2nc3sc4ccccc4c3s2)cc1 ? 365

I am curious: what absorption maximum value has been reported for O=C1OC(c2ccccc2)=N/C1=C\c1ccc(N(c2ccc(/C=C3\N=C(c4ccccc4)OC3=O)cc2)c2ccc(/C=C3/N=C(c4ccccc4)OC3=O)cc2)cc1 ? 506

I am curious: what absorption maximum value has been reported for O=C1c2ccccc2C2=Cc3cc4c(cc3B(O)N12)OCO4 ? 396

I am curious: what absorption maximum value has been reported for CC1(C)c2ccccc2N(c2ccc(-c3n[n+]4c(o3)-c3ccccc3O[B-]4(F)F)cc2)c2ccccc21 ? 362

I am curious: what absorption maximum value has been reported for N#C/C(=C\c1cn(-c2ccccc2)nc1-c1ccccc1)c1nc2ccccc2s1 ? 382

I am curious: what absorption maximum value has been reported for COc1ccc(-c2c3nc(cc4ccc([nH]4)c(-c4ccc(OC)c(OCC(=O)O)c4)c4nc(cc5ccc2[nH]5)C=C4)C=C3)cc1OCC(=O)O ? 633

I am curious: what absorption maximum value has been reported for CC(C)(C)c1cc2ccc3cc(C(C)(C)C)cc4c3c2c(c1)c(=O)n1c4nc2c3cc(C(C)(C)C)cc4ccc5cc(C(C)(C)C)cc(c5c43)c21 ? 394

I am curious: what absorption maximum value has been reported for CCOC(=O)/C(C#N)=C\c1ccc2c(c1)c1ccccc1n2-c1ccc(C)cc1 ? 397

I am curious: what absorption maximum value has been reported for NS(=O)(=O)c1ccc(N2N=C(c3ccc(O)cc3)CC2c2ccc([N+](=O)[O-])cc2)cc1 (configuration not stated) ? 358

I am curious: what absorption maximum value has been reported for COc1ccc(-c2cc(/C=C/c3ccc(N(c4ccccc4)c4ccccc4)cc3)c(C#N)c(N3CCCCC3)c2)cc1 ? 398

I am curious: what absorption maximum value has been reported for c1ccc2[nH]c(-c3cc(-c4nc5ccccc5[nH]4)cc(-c4nc5ccccc5[nH]4)c3)nc2c1 ? 316

I am curious: what absorption maximum value has been reported for C#CCNC1=C2C=CC=[N+]2[B-](F)(F)n2cccc21 ? 404

I am curious: what absorption maximum value has been reported for COc1ccc(-c2c3nc(cc4ccc([nH]4)c(-c4ccc(OC)c(OCC(=O)O)c4)c4nc(cc5ccc2[nH]5)CC4)C=C3)cc1OCC(=O)O ? 644
